- study target: hKCNQ2/3 (Homo sapiens, UniProt O43525+O43526)
- experiment: Fluorescence assay using a voltage sensitive dye (fluorimetry)
- conditions: CHO-K1 cells expressing KCNQ2/3; Table 3
- Experimental: Fluorescence Assay using a Voltage Sensitive Dye […] The fluorescence measurements are carried out with a BMG Labtech FLUOstar™, BMG Labtech NOVOstar™ or BMG Labtech POLARstar™ instrument (525 nm excitation, 560 nm emission, Bottom Read mode). […] The fluorescence intensity of the dye is then measured for 5 min and the fluorescence value F1 of each well is thus determined at a given, constant time. […]
quantity: pIC50
Numbers only, as −log10 of the molar value.

Look over these answered cases.
1) O=C(CC(C(=O)N1CCc2sccc2C1)c1ccccc1)NCc1cccc(C(F)(F)F)c1 (stereo not drawn) [compound 30] | 6.67
2) O=C(NCc1cccc(C(F)(F)F)c1)C1CCCCC1C(=O)N1CCc2sccc2C1c1ccccc1 (mixture of isomers) [compound 31] | 6.60

# input Return the recorded pIC50 value; entry: O=C(CC(C(=O)N1CCc2sccc2C1c1ccccc1)c1ccccc1)NCc1cccc(C(F)(F)F)c1 (stereo not drawn) [compound 29]
# output 6.88

###

- study target: hKCNQ2/3 (Homo sapiens, UniProt O43525+O43526)
- Construct: expressed in transfected cells; host or cells: CHO-K1
- experiment: Fluorescence assay using a voltage sensitive dye (fluorimetry)
- Assay type: cell-based
- conditions: CHO-K1 cells expressing KCNQ2/3; Table 3
quantity: EC50 (nM)
Numbers only, in nM.

State the recorded EC50 for every item in the following list.
1. CCCCC1c2ccsc2CCN1C(=O)CCC(=O)NCc1cccc(C(F)(F)F)c1 (centres unmarked) [compound 23]
2. Cc1scc2c1CCN(C(=O)CCC(=O)NCc1cccc(C(F)(F)F)c1)C2c1ccccc1 (centres unmarked) [compound 45]

# output
947
311

// each molecule listed below needs its EC50
1. Cc1ccsc1C1c2ccsc2CCN1C(=O)CCC(=O)NCc1cccc(C(F)(F)F)c1 (centres unmarked) [compound 254]
2. O=C(CCC(=O)N1CCc2sccc2C1C1CCCCC1)NCc1cccc(C(F)(F)F)c1 (centres unmarked) [compound 21]
3. O=C(CCC(=O)N1CCc2sccc2C1c1ccccc1)NCc1cccc(C(F)(F)F)c1 (centres unmarked) [compound 36]

# output
[211, 324, 707]

# input Look up EC50 of O=C(CCC(=O)N1CCc2sccc2C1C1CC1)NCc1cccc(C(F)(F)F)c1 (centres unmarked) [compound 260] and report it.
# output 108

###

- study target: hKCNQ2/3 (Homo sapiens, UniProt O43525+O43526)
- Construct: expressed in transfected cells; host or cells: CHO-K1
- experiment: Fluorescence assay using a voltage sensitive dye (fluorimetry)
- Format: cell-based
- conditions: 10 μM; relative to retigabine = 100%; comparison experiments table; read-out: Fluorimetry % Efficacy @ 10 μM (retigabine = 100%)
quantity: Emax at 10 µM (%)
One number for each entry, in %.

In the examples that follow, each entry is paired with its recorded Emax at 10 µM.
1. O=C(CCC(=O)N1CCn2cccc2C1c1ccccc1)NCc1cccc(C(F)(F)F)c1 (stereo not shown) [Example No. 2 of WO 2008/046582, reference compound] | 115
2. O=C(CCC(=O)N1CCc2sccc2C1c1ccccc1)NCc1cccc(C(F)(F)F)c1 (stereo not shown) | 145
3. O=C(CCC(=O)N1CCn2cccc2C1c1cccs1)NCc1cccc(C(F)(F)F)c1 (stereo not shown) [Example No. 76 of WO 2008/046582, reference compound] | 113

Proceeding to the next molecule to report its Emax at 10 µM.
# input Tell us which Emax at 10 µM value is on record for O=C(CCC(=O)N1CCc2sccc2C1c1cccs1)NCc1cccc(C(F)(F)F)c1 (stereo not shown)
# output 165

###

- study target: hKCNQ2/3 (Homo sapiens, UniProt O43525+O43526)
- Construct: expressed in transfected cells; host or cells: CHO-K1
- experiment: Fluorescence assay using a voltage sensitive dye (fluorimetry)
- Format: cell-based
- conditions: comparison experiments table
Answer each item with its documented pEC50.
Numbers only, as −log10 of the molar value.

// known answers, use as guide
1. O=C(CCC(=O)N1CCc2sccc2C1c1cccs1)NCc1cccc(C(F)(F)F)c1 (stereo not shown) [compound 1] | 6.12
2. O=C(CCC(=O)N1CCn2cccc2C1c1cccs1)NCc1cccc(C(F)(F)F)c1 (stereo not shown) [Example No. 76 of WO 2008/046582, reference compound] | 5.48
3. O=C(CCC(=O)N1CCn2cccc2C1c1ccccc1)NCc1cccc(C(F)(F)F)c1 (stereo not shown) [Example No. 2 of WO 2008/046582, reference compound] | 5.55

# input # return pEC50 for O=C(CCC(=O)N1CCc2sccc2C1c1ccccc1)NCc1cccc(C(F)(F)F)c1 (stereo not shown) [Illustrative compound 2] , test system: hKCNQ2/3 (Homo sapiens, UniProt O43525+O43526)
# output 5.84

###

Can you tell me EC50 for the items I'm about to list?
- study target: hKCNQ2/3 (Homo sapiens, UniProt O43525+O43526)
- Construct: expressed in transfected cells; host or cells: CHO-K1
- experiment: Fluorescence assay using a voltage sensitive dye (fluorimetry)
- Assay type: cell-based
- conditions: CHO-K1 cells expressing KCNQ2/3; Table 3
Numbers only, in nM.

1) CC(C)C1c2ccsc2CCN1C(=O)CCC(=O)NCc1cccc(C(F)(F)F)c1 (stereo not shown) [compound 22] | 1220
2) CCc1ccccc1C1c2ccsc2CCN1C(=O)CCC(=O)NCc1cccc(C(F)(F)F)c1 (stereo not shown) [compound 251] | 131

Provide EC50 for all items below, preserving their order.
1. O=C(CCC(=O)N1CCc2sccc2C1c1ccccc1)NCCC1CCCCC1 (stereo not shown) [compound 245]
2. O=C(CCC(=O)N1CCc2ccsc2C1c1ccccc1)NCc1cccc(C(F)(F)F)c1 (stereo not shown) [compound 9]

# output
1. 690
2. 407

###

- study target: hKCNQ2/3 (Homo sapiens, UniProt O43525+O43526)
- Construct: expressed in transfected cells; host or cells: CHO-K1
- experiment: Fluorescence assay using a voltage sensitive dye (fluorimetry)
- Type: cell-based
- conditions: CHO-K1, 10 μM; relative to retigabine = 100%; CHO-K1 cells expressing KCNQ2/3; Table 3; read-out: Fluorimetry % Efficacy @ 10 μM (reti-gabine = 100%)
quantity: Emax at 10 µM (%)
One number for each entry, in %.

Here are 2 compounds together with their reported answers.
1) Cc1ccccc1CNC(=O)CCC(=O)N1CCc2sccc2C1c1ccccc1 (stereo not shown) | -20
2) Cc1ccc(C2c3ccsc3CCN2C(=O)CCC(=O)NCc2ccncc2)cc1 (stereo not shown) | 10

State recorded Emax at 10 µM for all listed compounds.
1. Cc1scc2c1CCN(C(=O)CCC(=O)NCc1cccc(C(F)(F)F)c1)C2c1ccccc1 (stereo not shown)
2. C[C@H](CC(=O)N1CCc2sccc2C1c1ccccc1)C(=O)NCc1cccc(C(F)(F)F)c1 (stereo partly shown)

# output
[39, 106]

###

- study target: hKCNQ2/3 (Homo sapiens, UniProt O43525+O43526)
- Construct: expressed in transfected cells; host or cells: CHO-K1
- experiment: Fluorescence assay using a voltage sensitive dye (fluorimetry)
- Assay type: cell-based
- conditions: CHO-K1 cells expressing KCNQ2/3; Table 3
- Protocol: Fluorescence Assay using a Voltage Sensitive Dye […] The fluorescence measurements are carried out with a BMG Labtech FLUOstar™, BMG Labtech NOVOstar™ or BMG Labtech POLARstar™ instrument (525 nm excitation, 560 nm emission, Bottom Read mode). […] The fluorescence intensity of the dye is then measured for 5 min and the fluorescence value F1 of each well is thus determined at a given, constant time. […]
quantity: log10(EC50) (log10 of the value in nM)
Annotation: log10 of EC50, nM basis.

Here's what some known entries look like.
1. O=C(CCC(=O)N1CCc2sccc2C1c1ccccc1)NCc1ccccc1C(F)(F)F (centres unmarked) [compound 17] | 1.79
2. O=C(CCC(=O)N1CCc2sccc2C1c1ccccc1)NCc1cccc(C(F)(F)F)c1F (centres unmarked) [compound 40] | 2.19

// for each compound in input: emit log10(EC50)
1. O=C(CCC(=O)N1CCc2sccc2C1c1ccccc1)NCc1cccc(F)c1 (centres unmarked) [compound 18]
2. Cc1cc2c(s1)CCN(C(=O)CCC(=O)NCc1cccc(C(F)(F)F)c1)C2c1ccccc1 (centres unmarked) [compound 10]
3. Cc1ccc(CNC(=O)CCC(=O)N2CCc3sccc3C2c2ccccc2)cc1C(F)(F)F (centres unmarked) [compound 249]
4. O=C(CCC(=O)N1CCc2sccc2C1CCc1ccccc1)NCc1cccc(C(F)(F)F)c1 (centres unmarked) [compound 261]
5. C[C@H](CC(=O)NCc1cccc(C(F)(F)F)c1)C(=O)N1CCc2sccc2C1c1ccccc1 (some centres unmarked) [compound 34]
6. O=C(CCC(=O)N1CCc2sccc2C1c1ccccc1)NCc1cccc(C(F)(F)F)c1 (centres unmarked) [Illustrative compound 2]
7. O=C(CCC(=O)N1CCc2sccc2C1c1ccccc1)NCC1CCCCC1 (centres unmarked) [compound 247]

# output
3.34
2.58
2.54
1.92
2.80
2.88
3.16

Batch request: log10(EC50) per item, same order as input.
1. Cc1cccc(C2c3ccsc3CCN2C(=O)CCC(=O)NCc2cccc(C(F)(F)F)c2)c1 (centres unmarked) [compound 4]
2. O=C(CCC(=O)N1CCc2sccc2C1c1ccccc1)NCc1ccc(C(F)(F)F)cc1 (centres unmarked) [compound 13]
3. Cc1ccccc1C1c2ccsc2CCN1C(=O)CCC(=O)NCc1cccc(C(F)(F)F)c1 (centres unmarked) [compound 8]
4. O=C(CCC(=O)N1CCc2sccc2C1c1ccccc1)N1CCc2ccc(C(F)(F)F)cc2C1 (centres unmarked) [compound 269]

# output
1: 2.66; 2: 2.57; 3: 1.90; 4: 2.72

Look at each compound and report its log10(EC50).
1. CC(C)c1ccccc1C1c2ccsc2CCN1C(=O)CCC(=O)NCc1cccc(C(F)(F)F)c1 (centres unmarked) [compound 252]
2. Cc1csc2c1C(c1ccccc1)N(C(=O)CCC(=O)NCc1cccc(C(F)(F)F)c1)CC2 (centres unmarked) [compound 20]
3. Cc1cc(F)ccc1C1c2ccsc2CCN1C(=O)CCC(=O)NCc1cccc(C(F)(F)F)c1 (centres unmarked) [compound 262]
4. O=C(CCC(=O)N1CCc2sccc2C1c1ccc(F)cc1)NCc1cccc(C(F)(F)F)c1 (centres unmarked) [compound 7]
5. O=C(CCC(=O)N1CCc2sccc2C1c1ccccc1)N1CCc2c(cccc2C(F)(F)F)C1 (centres unmarked) [compound 271]
6. O=C(NCc1cccc(C(F)(F)F)c1)C1CCCCC1C(=O)N1CCc2sccc2C1c1ccccc1 (centres unmarked) [compound 32]
7. O=C(CCC(=O)N1CCc2sccc2C1c1cccs1)NCc1cccc(C(F)(F)F)c1 (centres unmarked) [compound 1]
8. Cc1ccccc1C1c2ccsc2CCN1C(=O)CCC(=O)NCc1ccc(C(F)(F)F)cc1 (centres unmarked) [compound 257]

# output
1. 3.00
2. 2.86
3. 2.22
4. 2.54
5. 2.63
6. 2.62
7. 3.23
8. 2.74

Value sought for every listed compound: log10(EC50).
1. Cc1ccccc1C1c2ccsc2CCN1C(=O)CCC(=O)NCc1ccccc1C(F)(F)F (centres unmarked) [compound 256]
2. O=C(CCC(=O)N1CCc2ccsc2C1C1CCCCC1)NCc1cccc(C(F)(F)F)c1 (centres unmarked) [compound 275]
3. O=C(CCC(=O)N1CCc2sccc2C1c1ccccc1F)NCc1cccc(C(F)(F)F)c1 (centres unmarked) [compound 6]
4. O=C(CCC(=O)N1CCc2sccc2C1c1ccccc1)NCc1cc(F)cc(C(F)(F)F)c1 (centres unmarked) [compound 41]
5. Cc1ccccc1C1c2sccc2CCN1C(=O)CCC(=O)NCc1cccc(C(F)(F)F)c1 (centres unmarked) [compound 274]

# output
1. 1.95
2. 2.98
3. 2.45
4. 2.42
5. 2.51

Fill in log10(EC50) for each of the 6 compounds listed.
1. O=C(CCC(=O)N1CCc2sccc2C1CCCc1ccccc1)NCc1cccc(C(F)(F)F)c1 (centres unmarked) [compound 265]
2. O=C(CCC(=O)N1CCc2sccc2C1c1ccccc1)NCc1ccc(F)c(C(F)(F)F)c1 (centres unmarked) [compound 250]
3. O=C(CCC(=O)N1CCc2sccc2C1c1ccccc1)NCc1cccc(C(F)(F)F)c1 (centres unmarked) [compound 35]
4. CCCCC1c2sccc2CCN1C(=O)CCC(=O)NCc1cccc(C(F)(F)F)c1 (centres unmarked) [compound 258]
5. C[C@H](CC(=O)N1CCc2sccc2C1c1ccccc1)C(=O)NCc1cccc(C(F)(F)F)c1 (some centres unmarked) [compound 28]
6. O=C(CCC(=O)N1CCc2sccc2C1C1CCCC1)NCc1cccc(C(F)(F)F)c1 (centres unmarked) [compound 263]

# output
[2.78, 2.71, 2.76, 2.49, 2.73, 2.20]

Data credit: patent US20100105722A1
